// provenance: patent US9464064B2

molecular target: HCV NS3 helicase NS3h_1b(con1) (Hepatitis C virus genotype 1b); construct: truncated C-terminally His-tagged NS3 proteins lacking the N-terminal protease, called NS3h; His-tag (C); made in house; test: biochemical; assay type: biochemical, hepatitis C virus genotype 1b(con1); settings: genotype 1b (con1); read-out: Target Potency MBHA (IC50 avg., μM) 1b (con1)
Outcome measure: IC50 (µM)
Give the quantity in µM, number only.

Query: Which IC50 reading was recorded for the compound "Cc1ccc2nc(-c3ccc4nc(-c5ccc(NC(=O)c6ccc7ccccc7c6)cc5)sc4c3)sc2c1S(=O)(=O)O" ?
Result: 3.6

Query: Which IC50 reading was recorded for the compound "Cc1ccc2nc(-c3ccc4nc(-c5ccc(NC(=S)Nc6ccccc6)cc5)sc4c3)sc2c1S(=O)(=O)O.N" ?
Result: 9.3

Query: Which IC50 reading was recorded for the compound "Cc1ccc2nc(-c3ccc(NC(=O)c4ccc(N)cc4)cc3)sc2c1S(=O)(=O)O" ?
Result: 69

Query: Which IC50 reading was recorded for the compound "Cc1ccc2nc(-c3ccc4nc(-c5ccc(NC(=O)c6ccc(Br)cc6)cc5)sc4c3)sc2c1S(=O)(=O)O" ?
Result: 5.2

Query: Which IC50 reading was recorded for the compound "Cc1ccc2nc(-c3ccc4nc(-c5ccc(NC(=O)c6cccc(C(F)(F)F)c6F)cc5)sc4c3)sc2c1S(=O)(=O)O" ?
Result: 9.2

Query: Which IC50 reading was recorded for the compound "Cc1ccc2nc(-c3ccc4nc(-c5ccc(NC(=O)c6ccc(C(F)(F)F)c(F)c6)cc5)sc4c3)sc2c1S(=O)(=O)O" ?
Result: 17.4

---

Please consider the recorded pIC50 for UniProtKB Q9WMX2 in what follows.
The meaning of pIC50 here: minus log10 of the concentration in molar units.

Query: Entry "Cc1ccc2nc(-c3ccc4nc(-c5ccc(NC(=O)c6ccc7nc(-c8ccc(N)cc8)sc7c6)cc5)sc4c3)sc2c1S(=O)(=O)O" , system UniProtKB Q9WMX2: what pIC50 was measured?
Result: 5.15

Query: Entry "Cc1ccc2nc(-c3ccc4nc(-c5ccc(NC(=O)c6ccc(C(C)(C)C)cc6)cc5)sc4c3)sc2c1S(=O)(=O)O" , system UniProtKB Q9WMX2: what pIC50 was measured?
Result: 4.25

Query: Entry "Cc1ccc2nc(-c3ccc4nc(-c5ccc(NC(=O)c6ccc(Cl)c(Cl)c6)cc5)sc4c3)sc2c1S(=O)(=O)O" , system UniProtKB Q9WMX2: what pIC50 was measured?
Result: 4.89

Query: Entry "Cc1ccc2nc(-c3ccc4nc(-c5ccc(NC(=O)c6ccc(N)cc6)cc5)sc4c3)sc2c1S(=O)(=O)O" , system UniProtKB Q9WMX2: what pIC50 was measured?
Result: 4.41

---

Field: Inh. (%) (Inhibition). Provide a value for each of the compounds that follow.
target: HCV NS3 helicase NS3h_1b(con1) (Hepatitis C virus genotype 1b, UniProt Q9WMX2); construct: truncated C-terminally His-tagged NS3 proteins lacking the N-terminal protease, called NS3h; His-tag (C); made in house; test: MBHA screen of NCI mechanistic set library at 20 μM (percent inhibition, compound interference); assay type: biochemical; details: compounds at 20 μM, MBHA with DNA substrate; calculated from Equation 1
Sequence (Q9WMX2 1192-1657): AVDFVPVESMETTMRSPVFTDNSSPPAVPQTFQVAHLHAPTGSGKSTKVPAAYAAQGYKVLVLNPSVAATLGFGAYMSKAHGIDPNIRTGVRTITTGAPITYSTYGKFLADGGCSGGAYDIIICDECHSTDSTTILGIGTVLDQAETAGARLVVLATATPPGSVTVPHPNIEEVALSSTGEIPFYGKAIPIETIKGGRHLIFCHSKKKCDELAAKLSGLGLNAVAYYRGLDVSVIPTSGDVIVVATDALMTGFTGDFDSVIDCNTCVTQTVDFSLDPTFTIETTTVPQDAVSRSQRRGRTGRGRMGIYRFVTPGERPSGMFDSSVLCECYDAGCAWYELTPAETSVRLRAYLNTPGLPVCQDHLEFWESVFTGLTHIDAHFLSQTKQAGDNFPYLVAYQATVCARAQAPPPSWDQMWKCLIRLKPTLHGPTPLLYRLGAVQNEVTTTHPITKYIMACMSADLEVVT
Give the quantity in %, number only.

Query: Which Inh. (%) (Inhibition) reading was recorded for the compound "Clc1ccccc1C(c1ccccc1)(c1ccccc1)n1ccnc1" ?
Result: −8.4

Query: Which Inh. (%) (Inhibition) reading was recorded for the compound "O=C1C(=O)c2ccccc2C(O)=C1CC=C(Cl)Cl" ?
Result: −9.7

Query: Which Inh. (%) (Inhibition) reading was recorded for the compound "COc1ccc(/C=C2/C(=O)N(C(=O)c3ccccc3O)N=C2C)cc1" ?
Result: 33.4

Query: Which Inh. (%) (Inhibition) reading was recorded for the compound CC(C)(O)C=CC(=O)C(C)(O)C1C(O)CC2(C)C3CC=C4C(C=C(O)C(=O)C4(C)C)C3(C)C(=O)CC12C (stereo not drawn) ?
Result: 5.8

Query: Which Inh. (%) (Inhibition) reading was recorded for the compound "Cc1ccc2[nH]c(O)c(N=Nc3ccccc3[N+](=O)[O-])c2c1" ?
Result: 1.4

Query: Which Inh. (%) (Inhibition) reading was recorded for the compound O=C1Oc2ccccc2C1C/C(=N\Nc1ccccc1)c1ccccc1O (stereo not drawn) ?
Result: 23.5

Query: Which Inh. (%) (Inhibition) reading was recorded for the compound "CCC[CH2][Pb]([Cl])([CH2]CCC)[CH2]CCC" ?
Result: 2.6

Query: Which Inh. (%) (Inhibition) reading was recorded for the compound "Nc1ccc(N)c2c1C(=O)c1ccccc1C2=O" ?
Result: −18.7

Query: Which Inh. (%) (Inhibition) reading was recorded for the compound COc1cc(NC(C)CCCN)c2ncccc2c1.O=P(O)(O)O.O=P(O)(O)O (stereo not drawn) ?
Result: 13.2

Query: Which Inh. (%) (Inhibition) reading was recorded for the compound "O=S(=O)(O)c1cc(N=Nc2cc(S(=O)(=O)O)c3ccccc3c2O)ccc1/C=C/c1ccc(N=Nc2cc(S(=O)(=O)O)c3ccccc3c2O)cc1S(=O)(=O)O.[Na+]" ?
Result: 89.2

Query: Which Inh. (%) (Inhibition) reading was recorded for the compound "CC(=O)O[C@@H]1C[C@H]2O[C@@H]3C=C(C)CC[C@]3(C)[C@]1(C)[C@]21CO1" ?
Result: 6.7

Query: Which Inh. (%) (Inhibition) reading was recorded for the compound "O=[N+]([O-])c1ccc2c(c1)/C(=N/N=C1c3ccccc3Cc3ccccc31)c1cc([N+](=O)[O-])cc([N+](=O)[O-])c1-2" ?
Result: −14.6

Query: Which Inh. (%) (Inhibition) reading was recorded for the compound "Cn1cnc([N+](=O)[O-])c1Sc1nnnn1-c1ccccc1" ?
Result: −7.3

Query: Which Inh. (%) (Inhibition) reading was recorded for the compound "Cc1ccc(C)c2c(N=Nc3ccccc3[N+](=O)[O-])c(O)[nH]c12" ?
Result: 14.2

Query: Which Inh. (%) (Inhibition) reading was recorded for the compound "CCCCCCCCCCCCCCCCOP(=O)([O-])OCC[N+](C)(C)C" ?
Result: −10.9

Query: Which Inh. (%) (Inhibition) reading was recorded for the compound "O=c1c(Br)c(-c2ccccc2)[nH]c2ccccc12" ?
Result: 4.4

Query: Which Inh. (%) (Inhibition) reading was recorded for the compound "CC(/C=N/N=C(N)N)=N\N=C(N)N" ?
Result: −13.6

Query: Which Inh. (%) (Inhibition) reading was recorded for the compound "OCCNCCN1CCN(CCCN2c3ccccc3Sc3ccc(C(F)(F)F)cc32)CC1" ?
Result: 18.3

Query: Which Inh. (%) (Inhibition) reading was recorded for the compound Cc1cc2c(c3oc(C4(C)OC4C4OC4C)cc(=O)c13)C(=O)c1c(O)c(C3CC(C)(N(C)C)C(O)C(C)O3)cc(C3CC(N(C)C)C(O)C(C)O3)c1C2=O (stereo not drawn) ?
Result: 32.1

Query: Which Inh. (%) (Inhibition) reading was recorded for the compound "CCN(CC)C(=S)S" ?
Result: −8.0

Query: Which Inh. (%) (Inhibition) reading was recorded for the compound Cc1ccccc1OCC(COC(=O)Nc1ccccc1)OC(=O)Nc1ccccc1 (stereo not drawn) ?
Result: 13.5

Query: Which Inh. (%) (Inhibition) reading was recorded for the compound COc1cc(C2c3cc4c(cc3C(O)C3COC(=O)C23)OCO4)cc(OC)c1OC (stereo not drawn) ?
Result: −2.7

Query: Which Inh. (%) (Inhibition) reading was recorded for the compound "N#CC(C#N)=Cc1ccc(Oc2ccccc2)cc1" ?
Result: −13.0

Query: Which Inh. (%) (Inhibition) reading was recorded for the compound "CC(C)N.CC(C)N.[Cl-].[Cl-].[OH-].[OH-].[Pt]" ?
Result: −0.4

Query: Which Inh. (%) (Inhibition) reading was recorded for the compound Cc1cn(C2CC(O)C(CO)O2)c(=O)[nH]c1=O (stereo not drawn) ?
Result: 2.1

Query: Which Inh. (%) (Inhibition) reading was recorded for the compound "C(=C/c1nc2ccccc2o1)/c1ccc2c(c1)OCO2" ?
Result: 0.3

Query: Which Inh. (%) (Inhibition) reading was recorded for the compound "C[C@@H]1CCOC(=O)/C=C/C=C\C(=O)O[C@@H]2C[C@H]3O[C@@H]4[C@@H]5O[C@]5(C)[C@H](O)C[C@]4(COC(=O)[C@H]1O)[C@]2(C)[C@@]31CO1" ?
Result: 20.7

Query: Which Inh. (%) (Inhibition) reading was recorded for the compound "COc1cc(OC)c(OC)cc1/C=C/c1ccnc2ccccc12" ?
Result: 1.2

Query: Which Inh. (%) (Inhibition) reading was recorded for the compound "CCN(CC)c1ccc2cc3ccc(=[N+](CC)CC)cc-3oc2c1.[Cl-]" ?
Result: 61.5

Query: Which Inh. (%) (Inhibition) reading was recorded for the compound "CN(C)CCOc1ccc(I)cc1Cc1ccccc1.Cl" ?
Result: −18.9

Query: Which Inh. (%) (Inhibition) reading was recorded for the compound "COC(=O)c1cc(-c2c[nH]cc2C(=O)OCc2ccccc2)cn1S(=O)(=O)c1ccc(C)cc1" ?
Result: 1.5

Query: Which Inh. (%) (Inhibition) reading was recorded for the compound "COc1ccc2cc3[n+](cc2c1OC)CCc1cc2c(cc1-3)OCO2.[Cl-]" ?
Result: 13.3

Query: Which Inh. (%) (Inhibition) reading was recorded for the compound "COc1ccc(O)c2c(=O)c3c(OC)cc4c(c3oc12)[C@@H]1C=CO[C@@H]1O4" ?
Result: 2.4
